// provenance: paper PMC12766724

- Tested on: Arabidopsis thaliana Col-0
- testName: Germination rate and phytotoxicity
- Format: in vivo
- condition: 5 µM; 10 DPS
recordedEndpoint: main root length (mm)

1. Fc1ccc(-c2ccc3[nH]ccc3c2)cc1 :: 39.53
2. CCCOc1cccc(-c2ccc3[nH]ccc3c2)c1 :: 37.25
3. CC(C)Oc1cccc(-c2ccc3[nH]ccc3c2)c1 :: 36.67
4. CCOc1cc(-c2ccc3[nH]ccc3c2)ccc1Cl :: 38.29
5. CC(C)c1ccc(-c2ccc3[nH]ccc3c2)cc1 :: 38.83
6. CC(C)Oc1cc(-c2ccc3[nH]ccc3c2)ccc1Cl :: 39.90

---

- Tested on: Arabidopsis thaliana Col-0
- testName: Germination rate and phytotoxicity
- Assay type: in vivo
- condition: 50 µM; 5 DPS
This listing pairs compounds with measured average fraction of germinated seeds.
recordedEndpoint: average fraction of germinated seeds

1) Fc1ccc(-c2ccc3[nH]ccc3c2)cc1 [i-20] :: 0.96
2) Clc1ccc(-c2ccc3[nH]ccc3c2)cc1 [i-19] :: 0.97
3) CCCOc1ccc(-c2ccc3[nH]ccc3c2)cc1 [i-13] :: 0.91
4) CCOc1cc(-c2ccc3[nH]ccc3c2)ccc1Cl [i-25] :: 0.96
5) FC(F)(F)Oc1ccc(-c2ccc3[nH]ccc3c2)cc1 [i-21] :: 1.00
6) CC(C)Oc1cc(-c2ccc3[nH]ccc3c2)ccc1Cl [i-27] :: 0.95
7) CCCOc1cccc(-c2ccc3[nH]ccc3c2)c1 [i-12] :: 0.93
8) CC(C)c1ccc(-c2ccc3[nH]ccc3c2)cc1 [i-17] :: 0.89
9) CCOc1cccc(-c2ccc3[nH]ccc3c2)c1 [i-9] :: 0.96
10) CC(C)Oc1cccc(-c2ccc3[nH]ccc3c2)c1 [i-15] :: 0.95
